Listed below: Potency values for each entry.
assay_comment: qHTS for differential inhibitors of proliferation of Plasmodium falciparum line HB3 (AID 1886);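 note: potency is the fitted concentration of half-maximal effect; parasites grown with compound for 72 h before SYBR Green readout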
applied_conditions: Plasmodium falciparum HB3 proliferation inhibition; series mostly up to 28.7 µM
Records with an inconclusive call do not appear. The source made the active and inactive calls. Calls come from the whole dose curve; as a rule, active = well fitted curve in the direction sought with a large enough effect; inconclusive = small, poorly fitted or top-dose-only effect, or another doubt; inactive = no such curve, though single readings can be large or run the other way.

Here's what some known entries look like.
compound: Cc1cc(N)c2ccccc2[n+]1CCCCCCCCCC[n+]1c(C)cc(N)c2ccccc21
Potency: 0.126 µM (active)
//
compound: CC(C(O)c1ccc(O)cc1)N1CCC(Cc2ccccc2)CC1 (stereo not drawn)
Potency: 5.01 µM (active)

Continue with the next compound.
The recorded Potency for CNCCCC1c2ccccc2C=Cc2ccccc21 is 11.2 µM (active)
